Ref: PubChem BioAssay AID1448

Quick reference for activation among some compounds
Target: Mucolipin-3 (Homo sapiens)
Experiment: human TRPML3 channel agonists, primary screen, cell-based, HEK293 TRPML3-YFP, Fluo-8 calcium fluorescence, 3 µM (AID 1448);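 also: 0% = DMSO only wells and 100% = carbachol wells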
Conditions: at 3 µM, hits give high values, 100% = the carbachol control signal
Out of some 220,000 compounds screened, about 630 (0.29%) were called active. Shown is part of a subset that was picked to be rich in actives.
measured attribute: activation (%)

>>> print(df.to_string())
                              line_notation  measured_attribute  reported_value
0           O=C(CSc1nncn1-c1cccnc1)N1CCOCC1          activation            0.63
1  COc1cc(-c2cc(C(=O)OCC(=O)Nc3ccc4c(c3)OCO4)c3ccccc3n2)cc(OC)c1OC          activation           -0.31
2  CCOc1ccc(NC(=O)NNC(=O)c2ccc(Cl)cc2Cl)cc1          activation            0.56
3  NS(=O)(=O)c1ccc(NC(=O)COC(=O)c2ccc(Cl)nc2)cc1          activation            0.29
4  CN1CCN(/N=C/c2ccc(-c3ccc([N+](=O)[O-])cc3)o2)CC1          activation             4.1
